Measured inhibition at 50 µM by item
measured on: UniProt:P00519
Sequence (P00519 242-493 limits assumed, species assumed): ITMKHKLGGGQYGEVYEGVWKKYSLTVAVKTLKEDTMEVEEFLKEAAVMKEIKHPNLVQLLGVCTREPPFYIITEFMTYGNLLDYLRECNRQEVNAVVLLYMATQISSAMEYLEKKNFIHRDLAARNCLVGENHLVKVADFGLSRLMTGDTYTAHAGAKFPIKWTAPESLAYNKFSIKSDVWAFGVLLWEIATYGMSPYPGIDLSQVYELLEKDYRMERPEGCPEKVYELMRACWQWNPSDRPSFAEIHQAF
assay protocol: abl kinase assay (ELISA or Alphascreen)
Format: biochemical
assay context: capacity to inhibit 50% of activity at 50 μM; read-out: abl inhibitory activity

> print(dat)
                                   molecule  measured.result
1  C[C@H](Nc1cncc(-n2cnc3cc(C(=O)NCc4ccccc4)ccc32)n1)c1ccccc1            > 50%
2  COc1ccc([C@H](C)Nc2cncc(-n3cnc4ccccc43)n2)cc1            > 50%
3  CCN(CC)Cc1ccc2ncn(-c3cncc(NC(C)c4ccc(F)cc4)n3)c2c1 (stereo not shown)            < 50%
4  C[C@H](Nc1cncc(-n2cnc3ccccc32)n1)c1ccc(Br)cc1            > 50%
5      Cc1nccn1-c1cncc(N[C@H](C)c2ccccc2)n1            < 50%

Prompt line: Look at this molecule and give its reported inhibition at 50 µM. `C[C@H](Nc1cncc(-n2cnc3cc(C(=O)N4CCOCC4)ccc32)n1)c1ccccc1`
Response line: > 50%

Prompt line: Try this molecule next: `C[C@H](Nc1cncc(-n2cnc3ccncc32)n1)c1ccccc1`
Response line: > 50%

Prompt line: Another molecule: `C[C@H](Nc1cncc(-n2cnc3cc(CN4CCN(C)CC4)ccc32)n1)c1ccccc1`
Response line: < 50%

Prompt line: And then C[C@H](Nc1cncc(-n2cnc3cc(NC(=O)C4CCCNC4)ccc32)n1)c1ccccc1 (stereo partly shown) , what is it?
Response line: > 50%

Prompt line: Do the same for `Cc1nc2ccccc2n1-c1cncc(N[C@@H](C)c2ccccc2)n1` please
Response line: < 50%

Data credit: patent US7511047B2
